# target-entity: Steroid hormone receptor ERR1 (Homo sapiens)
# assay-explanation: ATG_ERRa_TRANS: Attagene TRANS-FACTORIAL HepG2 Assay for human Estrogen-Related Receptor alpha (ERRa) (AID 2282971)
# condition-summary: HepG2 Attagene TRANS reporter, ERRa transactivation
Results filed as inconclusive are left out. The source made the active and inactive calls. The calls were made as follows: active = hit-call score of the fitted dose curve at least 0.9, where 1 is the maximum; inconclusive = response in the unintended direction; inactive = score below 0.9.
endpoint: outcome

INSERT INTO results (molecule, result) VALUES
  ('[Co]', 'inactive'),
  ('O=C(O)C(F)(F)C(F)(F)OC(F)(F)F', 'inactive'),
  ('Cc1cccc(N(C)C)c1', 'inactive'),
  ('CC(C)(C)C(=O)CC(=O)C(F)(F)C(F)(F)C(F)(F)F', 'inactive'),
  ('CS(C)(=O)=O', 'inactive'),
  ('O=C(O)C(F)(F)C(F)(F)C(F)(F)F', 'inactive'),
  ('OC[C@@H](O)[C@@H](O)[C@H](O)[C@@H](O)CO', 'inactive'),
  ('O=C(O)C(F)(F)C(F)(F)C(F)(F)C(F)(F)C(F)(F)C(F)(F)C(F)(F)C(F)(F)C(F)(F)C(F)F', 'inactive'),
  ('Oc1ccc(Nc2ccccc2)cc1', 'inactive'),
  ('Nc1ccc(S(=O)(=O)Nc2nccs2)cc1', 'inactive'),
  ('C=C(C)C(=O)OCC(F)(F)C(F)(F)C(F)(F)F', 'inactive'),
  ('CCCCCCCCCCCCCCCC[N+](C)(C)Cc1ccccc1', 'inactive'),
  ('CC(C)c1ccccc1N', 'inactive'),
  ('FC(F)(F)C(F)(F)C(F)(F)C(F)(F)C(F)(F)C(F)(F)CCS', 'inactive'),
  ('O=C(O)C(F)(OC(F)(F)C(F)(OC(F)(F)C(F)(F)C(F)(F)F)C(F)(F)F)C(F)(F)F (centres undefined)', 'inactive'),
  ('O=S(=O)(O)C(F)(F)C(F)(F)C(F)(F)C(F)(F)C(F)(F)C(F)(F)C(F)(F)F', 'inactive'),
  ('COC(OC(C)=O)c1ccccc1 (centres undefined)', 'inactive'),
  ('FC(F)(F)C(F)(F)C(F)(F)C(F)(F)C(F)(F)C(F)(F)C(F)(F)Br', 'inactive'),
  ('NC(=O)C(F)(F)C(F)(F)C(F)(F)C(F)(F)F', 'inactive'),
  ('O=S(=O)(OCC(F)F)C(F)(F)F', 'inactive'),
  ('Nc1ccc(Oc2cccc(Oc3ccc(N)cc3)c2)cc1', 'inactive'),
  ('CCN(Cc1cccc(S(=O)(=O)O)c1)c1ccc(C(=C2C=CC(=[N+](CC)Cc3cccc(S(=O)(=O)O)c3)C=C2)c2ccc(O)cc2S(=O)(=O)[O-])cc1', 'inactive'),
  ('OCC(F)(F)C(F)(F)C(F)(F)C(F)F', 'inactive'),
  ('CC/C=C\CCOC(=O)c1ccccc1', 'inactive');

====

# assay-explanation: BSK_IMphg_SRB.Mphg: Macrophage Viability Assessment in the BioMAP Diversity Plus: IMphg Assay (AID 2284295)
# condition-summary: primary human endothelial cells with macrophages
# Protocol: BSK_IMphg is a cell-based, multiplexed-readout assay that uses venular endothelial cells and macrophages, a human vascular primary cell, with measurements taken at 24 hours after chemical dosing in a microplate: 96-well plate.BSK_IMphg_SRB.Mphg is an assay component measured in the BSK_IMphg assay. […] The levels of cell surface (or secreted, indicated by the prefix "s") biomarker endpoints were measured by ELISA. […] Plates were read after 6 h.
Calls of active or inactive are those of the source. The calls were made as follows: active = hit-call score of the fitted dose curve at least 0.9, where 1 is the maximum; inactive = score below 0.9.
endpoint: outcome

INSERT INTO measurements (compound, result) VALUES
  ('COC(=O)CCC(F)(F)C(F)(F)C(F)(F)C(F)(F)F', 'inactive'),
  ('FC(F)(F)C(F)(F)C(F)(F)CI', 'inactive'),
  ('FC(F)(F)C(F)(F)C(F)(F)N(C(F)(F)C(F)(F)C(F)(F)F)C(F)(F)C(F)(F)C(F)(F)F', 'inactive'),
  ('OCCCC(F)(F)C(F)(F)C(F)(F)F', 'inactive'),
  ('N=C(N)C(F)(F)C(F)(F)C(F)(F)C(F)(F)C(F)(F)C(F)(F)C(F)(F)F', 'inactive'),
  ('NC(=O)C(F)(F)C(F)(F)C(F)(F)C(F)(F)F', 'inactive'),
  ('C=C(C)C(=O)OCCC(F)(F)C(F)(F)C(F)(F)C(F)(F)C(F)(C(F)(F)F)C(F)(F)F', 'inactive'),
  ('FC(F)(F)C(F)(F)C(F)(F)C(F)(F)C(F)(F)C(F)(F)C(F)(F)Br', 'inactive'),
  ('O=S(=O)(OCCOC(F)(F)F)C(F)(F)F', 'inactive'),
  ('CCO[Si](CCC(F)(F)C(F)(F)C(F)(F)C(F)(F)C(F)(F)C(F)(F)F)(OCC)OCC', 'inactive'),
  ('C=C(C)C(=O)OCC(F)(F)C(F)(F)C(F)(F)F', 'inactive'),
  ('FC1CC(F)(F)C(F)(F)C1(F)F (configuration not stated)', 'inactive'),
  ('O=S(=O)(O)C(F)(F)C(F)(F)C(F)(F)C(F)(F)C(F)(F)C(F)(F)C(F)(F)F', 'inactive'),
  ('FC(F)(F)C(F)(F)C(F)(F)C(F)(F)C(F)(F)C(F)(F)C(F)(F)C(F)(F)CCS', 'inactive'),
  ('C=CC(F)(F)C(F)(F)C(F)(F)C(F)(F)C(F)(F)C(F)(F)C(F)(F)C(F)(F)C=C', 'inactive'),
  ('C=CC(F)(F)C(F)(F)C(F)(F)C(F)(F)C(F)(F)C(F)(F)C(F)(F)C(F)(F)F', 'inactive'),
  ('O=C(O)C(F)(F)C(F)(F)C(F)(F)C(F)(F)C(F)(F)C(F)(F)C(F)(F)C(F)(F)C(F)(F)C(F)(F)C(F)(F)C(F)(F)C(F)(F)F', 'inactive'),
  ('Cc1ccc(S(=O)(=O)OCC(F)(F)C(F)(F)C(F)(F)C(F)(F)C(F)(F)C(F)F)cc1', 'inactive'),
  ('CC(C)(C)C(=O)CC(=O)C(F)(F)C(F)(F)C(F)(F)F', 'inactive'),
  ('O=C(O)C(F)(F)C(F)(F)C(F)(F)C(F)(F)F', 'inactive'),
  ('OCC(F)(F)C(F)(F)C(F)(F)F', 'inactive'),
  ('C=CC(=O)OCC(F)(F)C(F)(F)C(F)(F)C(F)(F)C(F)(F)C(F)(F)C(F)(F)F', 'inactive');

Provenance of the data: PubChem BioAssay (EPA / NIEHS)
